Biological target: recombinant human MMP-13 (Homo sapiens)
Construct: made in house; host or cells: baculovirus (pBlueBac4 / Bac-N-Blue; virus made in Sf9), expressed in High-Five insect cells; culture supernatant used
Assay: Assay of MMP-13 inhibiting activity (fluorogenic peptide substrate)
Format: biochemical
Settings: Table 9; 37° C., 2 hours
We begin with a simple list: items and their reported pIC50.
Interpret pIC50 as the negative base-10 log of the concentration measured in mol/L.

O=C1CC(S)CN1Cc1ccc(Oc2ccc([N+](=O)[O-])cc2)cc1 (stereo not drawn) = 7.96

## Input Please report the recorded pIC50 for "CCc1ccc(Oc2ccc(CN3C[C@H](SC(C)=O)CC3=O)cc2)cc1" .
## Output 8.15

## Input What about this compound? O=C1CC(S)CN1Cc1ccc(Oc2ccc(C(F)(F)F)cc2)cc1 (stereo not drawn)
## Output 8.00

## Input What about this compound? CC(=O)SC1CC(=O)N(Cc2ccc(Oc3ccc(F)cc3F)cc2)C1 (stereo not drawn)
## Output 8.00

## Input What about this compound? CC(=O)SC1CC(=O)N(Cc2ccc(Oc3ccc(O)cc3)cc2)C1 (stereo not drawn)
## Output 8.05

## Input What about this compound? Cc1ccc(Oc2ccc(CN3CC(S)CC3=O)cc2)cc1 (stereo not drawn)
## Output 8.15
